# credit: the supplement of paper PMC10567573

B1: ZNF649 (parent)
chain: EHERAHRGEKPHGCSLCGKAFYKR

variants of: B1; assay: protein stability index of a GFP-peptide fusion (GPS, HEK-293T) (PSI 1-6); higher = more stable; conditions: c terminus: a fixed tail appended;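 note: lentivirally expressed fusions sorted by FACS into six bins by GFP to DsRed ratio, PSI derived from sequencing read proportions per bin multiplied by bin number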
Decision: protein stability index >= 2 yields Satisfied, all other cases yield Not satisfied.

>  <MUTATION_DESCRIPTOR>
C14Y

>  <ANSWER_LABEL>
Satisfied

$$$$
>  <MUTATION_DESCRIPTOR>
E9F

>  <ANSWER_LABEL>
Satisfied

$$$$
>  <MUTATION_DESCRIPTOR>
A5T

>  <ANSWER_LABEL>
Satisfied

$$$$
>  <MUTATION_DESCRIPTOR>
H12I

>  <ANSWER_LABEL>
Satisfied

$$$$
>  <MUTATION_DESCRIPTOR>
H6W

>  <ANSWER_LABEL>
Not satisfied

$$$$
>  <MUTATION_DESCRIPTOR>
H2V

>  <ANSWER_LABEL>
Not satisfied

$$$$
>  <MUTATION_DESCRIPTOR>
R24Q

>  <ANSWER_LABEL>
Satisfied

$$$$
>  <MUTATION_DESCRIPTOR>
A20R

>  <ANSWER_LABEL>
Satisfied

$$$$
>  <MUTATION_DESCRIPTOR>
H6I

>  <ANSWER_LABEL>
Not satisfied

$$$$
>  <MUTATION_DESCRIPTOR>
R4C

>  <ANSWER_LABEL>
Satisfied

$$$$
>  <MUTATION_DESCRIPTOR>
E9S

>  <ANSWER_LABEL>
Not satisfied

$$$$
